# Target Or Test System: Gamma-secretase (Homo sapiens) (UniProt Q96BI3+Q9NZ42+Q8WW43+P49768+Q92542+P49810)
# Experiment Description: Modulation of gamma-secretase activity in human H4 cells expressing APP695 assessed as increase in amyloid beta38 production at 100 uM after 20 to 24 hrs by liquid phase electrochemiluminescence assay
# Format: cell-based
Active and inactive are the calls of the source. No cut-off for these calls is given here.
Measurement Label: Activity

Example results:
Requested read-out: Activity. Entry: "CCCCCCCCn1c2ccccc2c2ccc(OCC(=O)OCC)cc21"
inactive

Requested read-out: Activity. Entry: "CCCCCCCCn1c2ccccc2c2ccc(O)cc21"
inactive

Requested read-out: Activity. Entry: "CCCCCCCCn1c2ccc(Cl)cc2c2ccc(CC)cc21"
inactive

Requested read-out: Activity. Entry: "CCCCCCCCn1c2ccccc2c2cc(C=O)c(OCC(=O)OC)cc21"
inactive

Continuing:
Requested read-out: Activity. Entry: CCCCCCCCn1c2ccc(Cl)cc2c2ccc(C(C)C(=O)OC)cc21 (centres undefined)
inactive

Requested read-out: Activity. Entry: "CCCCCCCCn1c2ccccc2c2ccc(OCC(=O)OCC(C)C)cc21"
inactive

----------
In this section, each of the compounds is paired with its reported pEC50.
# Target Or Test System: Gamma-secretase
# Experiment Description: Modulation of gamma-secretase activity in human H4 cells expressing APP695 assessed as increase in amyloid beta38 production after 20 to 24 hrs by liquid phase electrochemiluminescence assay
# Type: cell-based
// pEC50 is dimensionless: -log10 of concentration (M)

Requested read-out: pEC50. Entry: "CCCCCCCCn1c2ccccc2c2ccc(OCC(=O)O)cc21"
4.62

Requested read-out: pEC50. Entry: "CCCCCCCCn1c2ccccc2c2ccc(Oc3ccccc3C(=O)O)cc21"
4.64

Requested read-out: pEC50. Entry: "CCCCCCCCn1c2ccccc2c2ccc(OC3=C(O)CNC3=O)cc21"
5.10

Let us move to another entry and its pEC50.
Requested read-out: pEC50. Entry: "CCCCCCCCn1c2ccccc2c2ccc(OC3=C(O)COC3=O)cc21"
4.68

----------
# Target Or Test System: Gamma-secretase
# Experiment Description: Modulation of gamma-secretase activity in human H4 cells expressing APP695 assessed as increase in amyloid beta40 production after 20 to 24 hrs by liquid phase electrochemiluminescence assay
# Format: cell-based
Measurement Label: IC50 (µM)
Reply numerically in µM, unit not repeated.

Example results:
Requested read-out: IC50. Entry: "CCCCCCCCn1c2ccccc2c2ccc(OCc3nn[nH]n3)cc21"
102

Requested read-out: IC50. Entry: CCCCCCCCn1c2ccccc2c2ccc(OC3=C(O)C(Cc4ccccc4)N(Cc4ccc5c(c4)OCO5)C3=O)cc21 (stereo not given)
32

Requested read-out: IC50. Entry: "CCCCCCCCn1c2ccccc2c2ccc(OCC#N)cc21"
105

Let us move to another entry and its IC50.
Requested read-out: IC50. Entry: "CCCCCCCCn1c2ccccc2c2ccc(OC3=C(O)CNC3=O)cc21"
72

----------
# Target Or Test System: Gamma-secretase (Homo sapiens) (UniProt Q96BI3+Q9NZ42+Q8WW43+P49768+Q92542+P49810)
# Experiment Description: Modulation of gamma-secretase activity in human H4 cells expressing APP695 assessed as increase in amyloid beta38 production at 100 uM after 20 to 24 hrs by liquid phase electrochemiluminescence assay
# Assay type: cell-based
Active and inactive are the calls of the source. The rule behind the calls is not given here.
Measurement Label: Activity

Example results:
Requested read-out: Activity. Entry: CCCCCCCCn1c2ccc(Cl)cc2c2ccc(C(C)C(=O)OCC)cc21 (stereo not drawn)
inactive

Requested read-out: Activity. Entry: "CCCCCCCCn1c2ccccc2c2cc(C=O)c(OCC(=O)O)cc21"
inactive

Requested read-out: Activity. Entry: "CCCCCCCCn1c2ccccc2c2cc(CO)c(OCCO)cc21"
inactive

Requested read-out: Activity. Entry: CCCCCCCCn1c2ccc(Cl)cc2c2ccc(C(C)C(=O)NS(C)(=O)=O)cc21 (stereo not drawn)
inactive

Requested read-out: Activity. Entry: "CCCCCCCCn1c2ccccc2c2ccc(OCCN(C(=O)C(F)(F)F)C(=O)C(F)(F)F)cc21"
inactive

Continuing:
Requested read-out: Activity. Entry: "CCCCCCCCn1c2ccccc2c2ccc(OCCP(=O)(OCC)OCC)cc21"
inactive

Requested read-out: Activity. Entry: "CCCCCCCCn1c2ccccc2c2ccc(OCCNC=O)cc21"
inactive

Requested read-out: Activity. Entry: "CCCCCCCCn1c2ccccc2c2ccc(OCCO)cc21"
inactive
